Catalogue of molecules with associated Ki
Target: human histamine H3 receptor (Homo sapiens, UniProt Q9Y5N1)
Construct: endogenous in cells; integrated RAGE vector pFG8-HH3 supplies exon 1, the cell's own gene supplies the other exons
Sequence (Q9Y5N1 whole entry): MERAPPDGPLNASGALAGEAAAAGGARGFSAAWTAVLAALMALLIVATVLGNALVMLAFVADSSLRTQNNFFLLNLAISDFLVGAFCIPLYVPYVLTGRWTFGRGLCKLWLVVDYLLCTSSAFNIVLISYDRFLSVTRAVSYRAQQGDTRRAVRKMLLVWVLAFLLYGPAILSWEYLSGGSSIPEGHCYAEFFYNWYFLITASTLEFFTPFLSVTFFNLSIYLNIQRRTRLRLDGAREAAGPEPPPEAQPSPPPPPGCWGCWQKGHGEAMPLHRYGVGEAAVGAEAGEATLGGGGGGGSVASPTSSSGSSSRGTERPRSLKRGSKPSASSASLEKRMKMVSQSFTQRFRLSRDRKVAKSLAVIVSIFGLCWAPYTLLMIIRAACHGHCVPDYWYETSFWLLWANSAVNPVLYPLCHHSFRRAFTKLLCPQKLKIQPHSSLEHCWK
Assay: Competition radioligand binding assay with [125I]iodoproxyfan on membranes of RAGE-H3 (HT1080-Gqαi5) cells expressing human H3 receptor
Conditions: ~0.15 nM [125I]iodoproxyfan, 1.5 hrs at room temperature, head does not name the quantity (apparent Ki by Cheng-Prussof)

Worked set:
>>> experimental_result("Cc1cc(C(=O)NC2CCCCC2)n(-c2ccc(OC3CCN(C4CCC4)CC3)cc2)n1")
"< 10 nM"
>>> experimental_result("Cc1nn(-c2ccc(OCCCN3CCCC3C)cc2)c2c1sc1ccccc12 (stereo not drawn)")
"< 10 nM"
>>> experimental_result("Cc1cc(C(C)(C)C)n(-c2ccc(OCCCN3CCCC3)cc2)n1")
"< 10 nM"
>>> experimental_result("Cc1c2c(nn1-c1ccc(OCCCN3CCCC3)cc1)CCCC2")
"< 1 nM"
>>> experimental_result("Cc1cc(C(=O)Nc2ccccc2)n(-c2ccc(OCCCN3CCCC3)cc2)n1")
"< 1 nM"
>>> experimental_result("Cc1cc(C(=O)NC2CCC2)n(-c2ccc(OCCCN3CCCC3)cc2)n1")
"< 1 nM"
>>> experimental_result("CC(C)c1cc(C(C)C)n(-c2ccc(OCCCN3CCCCC3)cc2)n1")
"< 10 nM"
>>> experimental_result("CC(C)c1cc(C(C)C)n(-c2ccc(OC3CCN(C4CCC4)CC3)cc2)n1")
"< 10 nM"

Please find the next molecule below.
IN: Consider the molecule Cc1c2c(nn1-c1ccc(OCCCN3CCCC3)cc1)CCC2 and give its measured Ki.
OUT: < 100 nM
